Target: T1, mouse transferrin receptor (mTfR) fused to EGFP, on CHO cells (mouse, UniProt Q62351 1-763)
T1 construct: whole, on cells; also called mouse TfR; CHO-mTfR-EGFP; not shown: EGFP
T1 sequence (Q62351 whole entry, the tested form may be a part): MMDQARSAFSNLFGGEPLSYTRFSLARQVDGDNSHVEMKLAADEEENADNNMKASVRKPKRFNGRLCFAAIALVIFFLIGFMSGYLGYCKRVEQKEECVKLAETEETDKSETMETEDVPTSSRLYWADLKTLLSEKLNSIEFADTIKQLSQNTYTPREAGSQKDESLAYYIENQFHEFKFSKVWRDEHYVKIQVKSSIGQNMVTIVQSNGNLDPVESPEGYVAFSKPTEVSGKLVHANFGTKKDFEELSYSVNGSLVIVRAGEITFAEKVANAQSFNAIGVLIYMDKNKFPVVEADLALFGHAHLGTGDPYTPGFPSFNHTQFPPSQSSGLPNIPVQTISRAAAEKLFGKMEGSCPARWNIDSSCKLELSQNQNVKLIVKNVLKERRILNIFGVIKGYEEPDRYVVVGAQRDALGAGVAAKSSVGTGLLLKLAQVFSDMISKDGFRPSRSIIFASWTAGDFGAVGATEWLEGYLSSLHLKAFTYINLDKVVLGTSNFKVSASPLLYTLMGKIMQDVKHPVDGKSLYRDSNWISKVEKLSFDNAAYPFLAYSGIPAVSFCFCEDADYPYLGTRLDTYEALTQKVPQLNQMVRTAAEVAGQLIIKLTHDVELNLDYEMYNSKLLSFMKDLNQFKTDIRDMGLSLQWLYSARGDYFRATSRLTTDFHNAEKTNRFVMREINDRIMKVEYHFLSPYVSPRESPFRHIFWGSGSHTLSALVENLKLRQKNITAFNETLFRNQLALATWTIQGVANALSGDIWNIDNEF
Assay: apparent Kd, flow cytometry, CHO cells
Assignment: determine reported Kd for the given binders.
Answers are plain numbers, in nM.

Solved cases (4 shown):
- Binder: "B8^V6 (VHH) VHH: EVQLVESGGGVVQPGGSLRLSCAASGEIFSINFMRWYRQAPGKQREWVAGFTRDGFTNYPDSAKGRFTISRDNAKNTVYLQIDSLKPEDTAVYYCYMLDTWGQGTQVTVSS"
  Quantity unit: "nM"
  Kd: 16
- Binder: "B8^V25 (VHH) VHH: EVQLVESGGGVVQPGGSLRLSCAASGEIFSINFMRWYRQAPGKQREWVAAFTRDGSTNYPDSAKGRFTISRDNAKNTVYLQIDSLKPEDTAVYYCYMLDTWGQGTQVTVSS"
  Quantity unit: "nM"
  Kd: 2350
- Binder: "C5^V32 (VHH) VHH: EVQLVESGGGVVQPGGSLKLSCVASGTDFSINFIRWYSQAPGKQREFVAGFTATGNTNYADSMKGRLTISRDNTKNAVYLQIDSLKPEDTAVYYCYMLGKWGQGTQVTVSS"
  Quantity unit: "nM"
  Kd: 1740
- Binder: "B8^V4 (VHH) VHH: EVQLVESGGGVVQPGGSLRLSCAASGEIFSINFMRWYRQAPIKQREWVAGFTRDGSTNYPDSAKGRFTISRDNAKNTVYLQIDSLKPEDTAVYYCYMLDTWGQGTQVTVSS"
  Quantity unit: "nM"
  Kd: 0.6

Report Kd for each item below.
1. C5^V27 (VHH) VHH: EVQLVESGGGVVQPGGSLKLSCVASGADFSINYIRWYRQAPGKQREFVAGFTATGNTNYADSMKGRFTISRDNTKNAVYLQIDSLKPEDTAVYYCYMLDKWGQGTQVTVSS
2. B8^V36 (VHH) VHH: EVQLVESGGGVVQPGGSLRLSCAASGEIFSINVMRWYRQAPGKQREWVAGFTRDGSTNYPDSAKGRFTISRDNAKNTVYLQIDSLKPEDTAVYYCYMLDTWGQGTQVTVSS
3. C5^h10 (VHH) VHH: EVQLVESGGGVVQPGGSLKLSCAASGTDFSINFIRWVRQAPGKGLEWVAGFTATGNTNYADSVKGRFTISRDNTKNTLYLQINSLRPEDTAVYYCYMLDKWGQGTQVTVSS
4. VHH A18 (C5^V18) (VHH) VHH: EVQLVESGGGVVQPGGSLKLSCVASGTDFSINFIRWYRQAPGKQREFVAGFTATGNTNYADSMKGRFTISRDNTKNAVYLQIDSLKPEDTAVYYCYMVDKWGQGTQVTVSS

Completion:
[197, 891, 845, 416]

Report Kd for each item below.
1. C5^h24 (VHH) VHH: EVQLVESGGGVVQPGGSLRLSCAASGTDFSINFIRWYRQAPGKGLEFVAGFTATGNTNYADSMKGRFTISRDNAKNTLYLQMNSLRPEDTAVYYCYMLDKWGQGTQVTVSS
2. C5^h11 (VHH) VHH: EVQLVESGGGVVQPGGSLRLSCAASGTDFSINFIRWVRQAPGKGLEWVAGFTATGNTNYADSMKGRFTISRDNTKNTLYLQMNSLRPEDTAVYYCYMLDKWGQGTQVTVSS
3. B8^V34 (VHH) VHH: EVQLVESGGGVVQPGGSLRLSCAASGEIRSINFMRWYRQAPGKQREWVAGFTRDGSTNYPDIAKGRFTISRDNAKNTVYLQIDSLKPEDTAVYYCYMLDTWGQGTQVTVSS
4. C5^h21 (VHH) VHH: EVQLVESGGGVVQPGGSLRLSCAASGTDFSINFIRWYRQAPGKGLEFVAGFTATGNTNYADSVKGRFTISRDNAKNTLYLQMNSLKPEDTAVYYCYMLDKWGQGTQVTVSS

Completion:
[624, 1370, 1070, 600]

Report Kd for each item below.
1. C5^V25 (VHH) VHH: EVQLVESGGGVVQPGGSLKLSCVASGTDFSINFIRWYRQAPGKQREFVAGFTATGNTNYADSMKGRFTISRDNTKNAVYLQIDSLKPEDTAVYYCYLLDKWGQGTQVTVSS
2. VHH A11 (C5^V11) (VHH) VHH: EVQLVESGGGVVQPGGSLKLSCVASGTDFSINYIRWYRQAPGKQREFVAGFTATGNTNYADSMKGRFTISRDNTKNAVYLQIDSLKPEDTAVYYCYMLDKWGQGTQVTVSS

Completion:
[136, 197]

Report Kd for each item below.
1. VHH B (B8) (VHH) VHH: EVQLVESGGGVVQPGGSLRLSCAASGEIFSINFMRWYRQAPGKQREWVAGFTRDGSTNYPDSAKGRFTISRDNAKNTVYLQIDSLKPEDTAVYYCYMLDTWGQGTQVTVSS
2. B8^V40 (VHH) VHH: EVQLVESGGGVVQPGGSLRLSCAASGEIKSINFMRWYRQAPGKQREWVSGFTRDGSTNYPDSAKGRFTISRDNAKNTVYLQIDSLKPEDTAVYYCYMLDTWGQGTQVTVSS

Completion:
1: 7.5; 2: 1580
